Measured values drawn from paper PMC8147254 for this set.

Give Papp A→B for every item shown.
# testProtocol: in vitro
# conditionSummary: pig
One number for each entry, in ×10⁻⁶ cm/s.

Worked set:
C[C@@H]1Cc2c(Cl)cc(C(=O)N[C@@H](Cc3ccccc3)C(=O)O)c(O)c2C(=O)O1 [OTA, Ochratoxin A]    0.38
Cc1c(O)c(C(=O)O)c(O)c2c1[C@H](C)[C@@H](C)OC2=O [DHCIT, dihydrocitrinone]    0.51
C[C@@H]1Cc2c(Cl)cc(C(=O)O)c(O)c2C(=O)O1 [OTα, ochratoxin α]    0.68

Kindly review the next compound as well.
Inquiry: Please look at this compound and report its Papp A→B: CC1=C2C(=CO[C@H](C)[C@H]2C)C(O)=C(C(=O)O)C1=O [CIT, Citrinin]
Reply text: 1.79
